Data provenance: PubChem BioAssay AID1578

Listing of recorded inhibition by entry.
- procedureSummary: NOD1 signaling inhibitors, primary screen, cell-based, luminescence, uHTS (AID 1578);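 also: HEK-293T reporter cells stimulated with the NOD1 agonist gamma-tri-DAP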
- assayConditions: NOD1-driven NF-kB luciferase reporter cells, at 4 µM, hits give high values
The whole screen tested about 290,000 compounds, of which about 3,000 (1%) were called active. For the sample, actives were picked, then their nearest neighbours and some compounds at random.
Return type: number; implicit unit %.

CSc1ccc(OC2CCCCC2NS(=O)(=O)c2ccccc2)cc1 (stereo unspecified) = -17
COc1cccc(CN2CCNC(=O)C2CC(=O)N2CCCCO2)c1OC (stereo unspecified) = -10.5
Cc1[nH]n(-c2ccccc2)c(=O)c1C=Nc1cccc2cccnc12 = 45.4
Cc1[nH]n(-c2ccccc2)c(=O)c1/C=N/N1C(=O)c2ccc3c4c(ccc(c24)C1=O)CC3 = 90.8
CCN(CC)C(=O)CSc1n[nH]c(=S)n1N = -12.5
COc1ccc(/C=N/NC(=O)c2cc(C3CC3)[nH]n2)cc1OC = -1.2

# input State, in one line, measured inhibition of COC(=O)C1=C(C)NC(C)=C(C(=O)OC)C1c1ccco1
# output -5.8

# input State, in one line, measured inhibition of Cc1[nH]n(-c2ccccc2)c(=O)c1/C=N/N1CCOCC1
# output 6.6

# input State, in one line, measured inhibition of Cc1ccc(C(=O)CSc2ncnc3sc4c(c23)CCC(C)C4)cc1 (stereo unspecified)
# output -2.7

# input State, in one line, measured inhibition of CCOC(=O)Cc1csc(SC(C)C(=O)NCC(=O)Nc2ccc(F)c(F)c2F)n1 (stereo unspecified)
# output -36.3

# input State, in one line, measured inhibition of CC(C)(C)SCCNS(=O)(=O)c1ccc2ccccc2c1
# output 7.5

====

Listing of recorded inhibition by entry.
- procedureSummary: NOD1 signaling inhibitors, primary screen, cell-based, luminescence, uHTS (AID 1578);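 also: HEK-293T reporter cells stimulated with the NOD1 agonist gamma-tri-DAP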
- assayConditions: NOD1-driven NF-kB luciferase reporter cells, at 4 µM, hits give high values
Out of some 290,000 compounds screened, about 3,000 (1%) were called active. Only a selection was taken, and actives are over-represented in it overall.
Return type: number; implicit unit %.

CC(=O)Nc1cc(-c2ccc(Cl)cc2)nn1-c1ccccc1 = -11.7
CCOC(=O)c1c(C)[nH]c(C(=O)O)c1C = 7.9
Cc1cc(NC(=O)CC(F)(F)F)n(-c2ccccc2)n1 = -13.5
COc1ccc([C@@H]2[C@@H]3C(=O)N(C(C)(C)C)C(=O)[C@@H]3[C@]3(Cc4ccc(Cl)cc4)C(=O)N(c4cccc(C)c4)C(=O)N23)cc1 = 13.2
Cc1cccc(N=C2NN=C(c3ccc4c(c3)OCCO4)CS2)c1 = -35.2

# input State, in one line, measured inhibition of CN(C(=S)NC(=O)/C=C/c1ccc(F)cc1)C1CCCCC1
# output -22.9

# input State, in one line, measured inhibition of CC(C)(C)N=C1NN=C(c2cc3ccccc3o2)CS1
# output -38.4

# input State, in one line, measured inhibition of Cc1ccc(-c2cc(NC(=O)CCl)n(-c3ccccc3)n2)cc1
# output 16

# input State, in one line, measured inhibition of c1ccc(CN=C2NN=C(c3cc4ccccc4o3)CS2)cc1
# output -43

# input State, in one line, measured inhibition of COc1ccc(C(=O)c2no[n+]([O-])c2C(=O)c2ccc(OC)cc2)cc1
# output 6.8

# input State, in one line, measured inhibition of Cc1ccc(S(=O)(=O)N2CCN(C(=O)c3sccc3-c3ccccc3)CC2)cc1
# output -24.8

# input State, in one line, measured inhibition of COc1cc2c(cc1OC)C(c1ccc(-c3ccc(Cl)c(Cl)c3)o1)=NCC2
# output 63.1

# input State, in one line, measured inhibition of c1ccc2oc(C3=NNC(=NC4CC4)SC3)cc2c1
# output 86.6
